molecular target: Cytochrome P450 1A2 (Homo sapiens); experiment: p450-cyp1a2 (AID 410); settings: recombinant CYP1A2, luciferin-ME demethylation, luminescence; series mostly up to 57 µM
Records with an inconclusive call do not appear. Active and inactive are the calls of the source. The call rests on the fitted dose curve.
The reply should name one outcome from active, inactive

compound_structure=CC(=O)NCCNc1ncncc1-c1ccccc1C cat=active
compound_structure=COc1ccc2[nH]cc(CCNc3ncnc4ccc(-c5cccnc5)cc34)c2c1 cat=active
compound_structure=Cn1cc(-c2nc3cnc(Oc4cccc(Cl)c4)nc3n(CCC#N)c2=O)c2ccccc21 cat=active
compound_structure=CN(C)Cc1ccccc1-c1cc(N(C)Cc2ccco2)ncn1 cat=active
compound_structure=CC(C)NC(=O)N1CCC2(CC1)CCN(C(=O)c1csnn1)CC2 cat=inactive

[Q] Just curious, what result did CS(=O)(=O)N1CCC2(CCCN(C(=O)Nc3ccccc3)C2)CC1 get here?
[A] active

[Q] Answer briefly: the call reported for CC(=O)NCCNc1nc(-c2ccccc2C(F)(F)F)nc2ccccc12 in this assay.
[A] active

[Q] GET /call?item= COc1ccccc1CN1CCCC2(CCNCC2)C1 returns the recorded outcome of this test.
[A] inactive

[Q] Just curious, what result did c1cncc(CNc2ncnc3ccc(-c4ccoc4)cc23)c1 get here?
[A] active

[Q] Per the records of this test, what outcome belongs to COc1ccccc1CN1CCCC2(CCN(S(C)(=O)=O)CC2)C1 ?
[A] inactive

[Q] State the result this test recorded for O=S(=O)(c1ccccc1)N1CCC2(CC1)CN(c1ncccn1)C2 .
[A] inactive

[Q] // return assay outcome for N#CCCn1c(=O)cnc2cnc(Oc3ccccc3)nc21
[A] active

[Q] Give the logged outcome of this assay for the following compound: COc1ccccc1CNc1ncncc1-c1cccnc1
[A] active

[Q] So what was the verdict on CCNc1ncc2nc(-c3ccc(Cl)cc3)c(=O)n(C[C@H]3CCCO3)c2n1 in this test?
[A] active

[Q] Each compound tested received a call. Report the one for Cc1cccc(CNc2ncnc3ccc(-c4cccnc4)cc23)c1 .
[A] active

[Q] Call for entry CNc1ccnc(-c2ccccc2CN(C)C)n1 :
[A] active

[Q] Call for entry O=S(=O)(c1ccccc1)N1CCC[C@@]2(CCN(c3ccccc3)C2)C1 :
[A] active

----------
Assay: qHTS Assay for Lipid Storage Modulators (AID 1519)
Conditions: Drosophila S3 cells, BODIPY lipid droplet/cell ratio, laser cytometry; measured here: lipid channel max response; cells loaded with oleic acid
Experimental: NIH Molecular Libraries Probe Production Centers Network [MLPCN] NIH Chemical Genomics Center [NCGC] Assay Submitter (PI): Beller, Mathias; Max-Planck-Institut fur Biophysikalische Chemie […] We dispensed 4 uL of cells at 1.25 x 10^6 cells/mL into LoBase Aurora COC 1,536-well plates (black walled, clear bottom) with a bottle-valve solenoid-based dispenser (Aurora) to obtain 5,000 cells/well. […] The ratio of the total intensity in PMT channel 1 over total intensity of channel 3 was also calculated. […]
Results filed as inconclusive are left out.
outcome_measure: max response (%)
Form entry: value (%) — number only.

Below: 3 molecules and their reported max response.
compound_structure=Cc1cnc(CNc2ncncc2-c2ccccc2C#N)cn1 measured=24.3
compound_structure=COc1ccccc1CN1CCCC2(CCN(S(C)(=O)=O)CC2)C1 measured=-12.2
compound_structure=CC(C)NC(=O)N1CC2(CCN(S(=O)(=O)c3ccccc3)CC2)C1 measured=-2.51

Item: O=C(c1cnccn1)N1CCC2(CCN(Cc3nccs3)CC2)CC1 | max response: 4.52

For this molecule ( Cn1cccc1C(=O)N1CCC2(CC1)CCN(c1ccccc1)CC2 ), measured max response is 16.6

The recorded max response for entry COCCn1c(=O)c(-c2cn(C)c3ccccc23)nc2cnc(Oc3cccc(Cl)c3)nc21 equals 16.7

Measured max response, O=C(Cc1ccc(Cl)c(Cl)c1)OCCN1CCCC1 : -0.355

Item: Cc1nc2cnc(Nc3ccccc3)nc2n(C2CC2)c1=O | max response: -28.8

Record CN1CCN(c2ncc3nc(-c4cccc(C#N)c4)c(=O)n(Cc4ccc(F)cc4)c3n2)CC1 , field max response: -4.23
